Known switch fluorescence ratio of a selection of sequences
# Tested on: ATP;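 note: ATP exposure 15 min at 22 °C before imaging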
# Experiment notes: switch fluorescence ratio, 500 uM ATP over buffer (Cy3 cluster intensity, sum of 5 cycles each) (fold (ratio)); higher = stronger signal-on switching upon ATP binding; sequences stand for … in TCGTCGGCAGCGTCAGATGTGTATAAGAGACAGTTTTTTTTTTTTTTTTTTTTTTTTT…TC
# Run conditions: aptamer strand: ATP DNA aptamer (quencher-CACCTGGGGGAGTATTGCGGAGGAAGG + anchor), 100 nM annealed; ATP concentration: 500 uM
A bare number is all that is needed in reply.

Example results:
GAAGTAGTCG; 1.06
AAAAAGGTTC; 0.991

Ask | Which measured switch fluorescence ratio value corresponds to GAATGGTATA ?
Reply | 0.993

Ask | Which measured switch fluorescence ratio value corresponds to AATTTGGGAA ?
Reply | 0.999

Ask | Which measured switch fluorescence ratio value corresponds to CGGTATTCTG ?
Reply | 1.01

Ask | Which measured switch fluorescence ratio value corresponds to TAGTCGTTTC ?
Reply | 1.02

Ask | Which measured switch fluorescence ratio value corresponds to TCGGCACATT ?
Reply | 1.46

Ask | Which measured switch fluorescence ratio value corresponds to AGGTAACGGG ?
Reply | 0.987

Ask | Which measured switch fluorescence ratio value corresponds to AGTGGGCGGG ?
Reply | 1

Ask | Which measured switch fluorescence ratio value corresponds to TAATCGTGCT ?
Reply | 0.973

Ask | Which measured switch fluorescence ratio value corresponds to AATTAATTGG ?
Reply | 0.994

Ask | Which measured switch fluorescence ratio value corresponds to CTCGTTCTAT ?
Reply | 1

Ask | Which measured switch fluorescence ratio value corresponds to TGTGGTTTGA ?
Reply | 1.01

Ask | Which measured switch fluorescence ratio value corresponds to GGCGTCCTTT ?
Reply | 0.994

Ask | Which measured switch fluorescence ratio value corresponds to ATGGGTCCAG ?
Reply | 1.01

Ask | Which measured switch fluorescence ratio value corresponds to CGGTTCGTGG ?
Reply | 1

Ask | Which measured switch fluorescence ratio value corresponds to ATCGTGGTCA ?
Reply | 0.987

----------
# Test system: ATP;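 note: ATP exposure 15 min at 22 °C before imaging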
# Experiment notes: switch fluorescence ratio, 500 uM ATP over buffer (Cy3 cluster intensity, sum of 5 cycles each) (fold (ratio)); higher = stronger signal-on switching upon ATP binding; sequences stand for … in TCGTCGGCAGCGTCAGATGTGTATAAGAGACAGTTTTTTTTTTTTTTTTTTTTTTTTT…TC
# Run conditions: aptamer strand: ATP DNA aptamer (quencher-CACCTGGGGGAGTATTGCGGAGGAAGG + anchor), 100 nM annealed; ATP concentration: 500 uM
Measurement name: switch fluorescence ratio
A bare number is all that is needed in reply.

TAGGACGCGG; 1.04
GCTGGGCGGC; 0.95
ACATTGGTAT; 1

Okay, now this sequence:
Ask | Which measured switch fluorescence ratio value corresponds to CCCAGCACGT ?
Reply | 1.37

----------
# Tested on: ATP;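 note: ATP exposure 15 min at 22 °C before imaging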
# Experiment notes: switch fluorescence ratio, 500 uM ATP over buffer (Cy3 cluster intensity, sum of 5 cycles each) (fold (ratio)); higher = stronger signal-on switching upon ATP binding; sequences stand for … in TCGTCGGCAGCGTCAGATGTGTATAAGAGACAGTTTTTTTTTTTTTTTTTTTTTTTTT…TC
# Run conditions: aptamer strand: ATP DNA aptamer (quencher-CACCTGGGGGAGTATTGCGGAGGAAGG + anchor), 100 nM annealed; ATP concentration: 500 uM
Measurement name: switch fluorescence ratio
A bare number is all that is needed in reply.

Example results:
TGAGGCACGG; 1.05
GCGTGCGGGC; 1.03
GGGCCCTTTT; 0.976
CACTATGGTG; 1.05
TTGGGTCCGG; 1.03

Ask | Which measured switch fluorescence ratio value corresponds to AACTTATTTG ?
Reply | 1

Ask | Which measured switch fluorescence ratio value corresponds to CATTACAGCC ?
Reply | 1.09

Ask | Which measured switch fluorescence ratio value corresponds to TGGAACTTAT ?
Reply | 0.997

Ask | Which measured switch fluorescence ratio value corresponds to AAATGTTCTT ?
Reply | 0.986

Ask | Which measured switch fluorescence ratio value corresponds to TTCGATAATC ?
Reply | 1.15

Ask | Which measured switch fluorescence ratio value corresponds to GTACTCATTT ?
Reply | 1

Ask | Which measured switch fluorescence ratio value corresponds to GACAGATGGT ?
Reply | 1.01

Ask | Which measured switch fluorescence ratio value corresponds to GCTGGGTATT ?
Reply | 0.944

Ask | Which measured switch fluorescence ratio value corresponds to CCGTTTATAT ?
Reply | 1.4

Ask | Which measured switch fluorescence ratio value corresponds to TGGGTAAAGC ?
Reply | 1.03

----------
Known switch fluorescence ratio of a selection of sequences
# System: ATP;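 note: ATP exposure 15 min at 22 °C before imaging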
# Experiment notes: switch fluorescence ratio, 500 uM ATP over buffer (Cy3 cluster intensity, sum of 5 cycles each) (fold (ratio)); higher = stronger signal-on switching upon ATP binding; sequences stand for … in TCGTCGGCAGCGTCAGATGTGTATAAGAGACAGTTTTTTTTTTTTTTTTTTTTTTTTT…TC
# Run conditions: aptamer strand: ATP DNA aptamer (quencher-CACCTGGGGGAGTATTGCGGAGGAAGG + anchor), 100 nM annealed; ATP concentration: 500 uM
A bare number is all that is needed in reply.

Example results:
GAGGGAGTTT; 0.987
TACGGAGGGC; 1.02
GGCAATTGGA; 1.01
GCACGAATGC; 1.06
GGGGTTGTCT; 1.01

Ask | Which measured switch fluorescence ratio value corresponds to AGTGTCGTGG ?
Reply | 1

Ask | Which measured switch fluorescence ratio value corresponds to TTGGCGTATT ?
Reply | 1.01

Ask | Which measured switch fluorescence ratio value corresponds to TAAGTTAATA ?
Reply | 1.02

----------
# Test system: ATP;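 note: ATP exposure 15 min at 22 °C before imaging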
# Experiment notes: switch fluorescence ratio, 500 uM ATP over buffer (Cy3 cluster intensity, sum of 5 cycles each) (fold (ratio)); higher = stronger signal-on switching upon ATP binding; sequences stand for … in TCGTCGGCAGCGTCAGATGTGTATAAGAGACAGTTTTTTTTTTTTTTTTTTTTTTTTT…TC
# Run conditions: aptamer strand: ATP DNA aptamer (quencher-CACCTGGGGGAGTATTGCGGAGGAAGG + anchor), 100 nM annealed; ATP concentration: 500 uM
Measurement name: switch fluorescence ratio
A bare number is all that is needed in reply.

Example results:
AAAGGGGTCG; 1.07
GCTTGCCGGT; 1

Ask | Which measured switch fluorescence ratio value corresponds to TCCTCAAGTT ?
Reply | 1.23

Ask | Which measured switch fluorescence ratio value corresponds to GATGGAGGAT ?
Reply | 1.01

Ask | Which measured switch fluorescence ratio value corresponds to TACATGGACC ?
Reply | 1.12

Ask | Which measured switch fluorescence ratio value corresponds to AAAAAAGGAT ?
Reply | 1.02

Ask | Which measured switch fluorescence ratio value corresponds to ATAGGGCG ?
Reply | 0.987

Ask | Which measured switch fluorescence ratio value corresponds to TGGCATTGGT ?
Reply | 0.983

Ask | Which measured switch fluorescence ratio value corresponds to TTGTTTGTGT ?
Reply | 1.02

Ask | Which measured switch fluorescence ratio value corresponds to TCAGGTGGAG ?
Reply | 1.03

----------
# Test system: ATP;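 note: ATP exposure 15 min at 22 °C before imaging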
# Experiment notes: switch fluorescence ratio, 500 uM ATP over buffer (Cy3 cluster intensity, sum of 5 cycles each) (fold (ratio)); higher = stronger signal-on switching upon ATP binding; sequences stand for … in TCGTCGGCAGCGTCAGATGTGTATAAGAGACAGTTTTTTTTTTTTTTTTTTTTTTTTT…TC
# Run conditions: aptamer strand: ATP DNA aptamer (quencher-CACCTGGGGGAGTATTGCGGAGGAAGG + anchor), 100 nM annealed; ATP concentration: 500 uM
Measurement name: switch fluorescence ratio
A bare number is all that is needed in reply.

Example results:
CAAGTTATAC; 1.38
TTTTCTTATC; 1.02
TGGAGGTCCG; 1.06
ATTTCAGGGT; 1
TAGCCAGCTC; 0.996

Okay, now this sequence:
Ask | Which measured switch fluorescence ratio value corresponds to AGCTTAGGGC ?
Reply | 0.989

----------
# Tested on: ATP;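 note: ATP exposure 15 min at 22 °C before imaging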
# Experiment notes: switch fluorescence ratio, 500 uM ATP over buffer (Cy3 cluster intensity, sum of 5 cycles each) (fold (ratio)); higher = stronger signal-on switching upon ATP binding; sequences stand for … in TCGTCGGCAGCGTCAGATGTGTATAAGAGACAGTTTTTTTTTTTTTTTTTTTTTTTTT…TC
# Run conditions: aptamer strand: ATP DNA aptamer (quencher-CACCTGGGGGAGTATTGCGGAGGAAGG + anchor), 100 nM annealed; ATP concentration: 500 uM
Measurement name: switch fluorescence ratio

TTTTGGTATT; 1.02

Okay, now this sequence:
Ask | Which measured switch fluorescence ratio value corresponds to TTAAGTGAC ?
Reply | 1.06
